Test system: OVCAR-8 ovarian
Experiment: NCI-60 one-dose screen, 48 h (100 = growth as untreated, 0 = no growth, -100 = all killed)
Details: 10 µM unless noted
About 83,000 compounds went through this panel and 20% of them were active in at least one assay; those are over-represented in the sample as a whole.
quantityMeasured: growth (%)
The reply should be a number in %, with the unit left off.

// known answers, use as guide
>>> testresult("COC(OC)c1ccccc1")
98.9
>>> testresult("COc1ccc(-n2c(-c3ccccc3)c(-c3ccccc3)c3c(SCC(=O)N/N=C/c4ccc(Cl)cc4)ncnc32)cc1")
85.3
>>> testresult("CCNc1nc(S(=O)(=O)CC)nc2ccccc12")
99.8
>>> testresult("C=C1CCC2C(C)(CO)C(O)CCC2(C)C1C/C=C1/C(=O)OCC1O/C=C/c1ccccc1 (centres undefined)")
55.3
>>> testresult("COc1ccc(-c2nc3sc(-c4cc(OC)c(OC)c(OC)c4)nn3c2/C=C2/C(=O)Nc3ccc(F)cc32)cc1")
21.9
>>> testresult("COc1ccc(-c2[nH]nc(N)c2-c2cc(OC)c3c(c2)OCO3)cc1")
77.2
>>> testresult("COc1cc2c(=O)n(C3CCCCCC3)c3c4cc[nH]c4ncc3c2cc1OC")
83.4
>>> testresult("O=C1/C(=C/c2ccc(Cl)cc2)CN(C(=O)CCN2CCC(=NO)CC2)C/C1=C\\c1ccc(Cl)cc1")
-89.8
>>> testresult("C=C1CCC2C3(C)COC(C)(C)OC3CCC2(C)C1C/C=C1/C(=O)OCC1Oc1ccccc1OC (centres undefined)")
81.1
>>> testresult("CN1CCN(Cc2ccc(NC(=O)c3cncc(C#Cc4cnc(N)c5ccncc45)c3)cc2C(F)(F)F)CC1")
29.6

Identify growth associated with the compound COc1cccc(/C=C2\Oc3cc(OCCCN4CCCC4)ccc3C2=O)c1OC
94

Using known records, supply growth for COc1ccc(/C=C\c2cc(OC)c(OC)c(OC)c2)cc1OC(=O)c1cccc(Cn2cc(CCOC(=O)c3cccc(Cn4nnc5c4C(=O)c4ccccc4C5=O)c3)nn2)c1
16

Consider the compound Cc1nc2c3c(ncn2n1)Oc1c(c(=O)[nH]c2ccccc12)C3c1ccc(Cl)cc1 (centres undefined) and give its recorded growth.
97.3

Note growth for the compound shown: N[C@@H]1CCN(C(=O)c2cc3cc(Cl)c(F)c(F)c3[nH]2)C1
96.3

Name the recorded growth of the compound listed here: CC12CCC3C4(C)COC(c5ccco5)OC4CCC3(C)C1CC(C1=CCOC1=O)O2 (centres undefined)
108

Return value of growth for input COc1ccc(NC(=O)c2cc(OC)c(OC)c(OC)c2)cc1O , no commentary.
57.6

Return value of growth for input COc1ccc(C(=O)N2NC(=O)/C(=C/c3ccc(F)cc3)N=C2c2ccccc2)cc1 , no commentary.
97.4

Tell us which growth value is on record for c1ccc(Nc2nc(Nc3ccccc3)nc(Nc3ccccc3)n2)cc1
92.2

Quickly give me recorded growth for Cn1ccc(Nc2nccc(Oc3ccc(C(=O)Nc4cccc(F)c4)c(Cl)c3)n2)c1
88.2
